Species on record: Oryctolagus cuniculus
METHOD SUMMARY: Inhibitory concentration against peroxidation of rabbits red blood cell (RBC) membrane ghost induced by gamma-ray irradiation
Format: functional
CONDITIONS USED: light or radiation study
PROPERTY MEASURED: IC50 (µM)

- COMPOUND: "CC(=O)/C=C/c1cccc(F)c1O"
  PROPERTY MEASURED: "IC50"
  OUTPUT UNIT: "µM"
  RECORDED MEASUREMENT: 51.2
- COMPOUND: "CC(=O)/C=C/c1cccc(O)c1O"
  PROPERTY MEASURED: "IC50"
  OUTPUT UNIT: "µM"
  RECORDED MEASUREMENT: 1.96
- COMPOUND: "COc1cccc(/C=C/C(C)=O)c1O"
  PROPERTY MEASURED: "IC50"
  OUTPUT UNIT: "µM"
  RECORDED MEASUREMENT: 3.25
- COMPOUND: "CC(=O)/C=C/c1ccc(O)cc1"
  PROPERTY MEASURED: "IC50"
  OUTPUT UNIT: "µM"
  RECORDED MEASUREMENT: 66.1
- COMPOUND: "COc1cc(/C=C/C(C)=O)cc(OC)c1O"
  PROPERTY MEASURED: "IC50"
  OUTPUT UNIT: "µM"
  RECORDED MEASUREMENT: 2.52

P: COc1ccc(O)c(/C=C/C(C)=O)c1
Q: CC(=O)/C=C/c1cc(C(C)(C)C)ccc1O
Please indicate which entry, P or Q , has the lower recorded IC50 value. Output the label that corresponds to your choice.
P
(P: 3.98 µM, Q: 8 µM)

1: CC(=O)/C=C/c1cccc(C(C)(C)C)c1O
2: CC(=O)/C=C/c1cc(O)ccc1O
Form field 'greater IC50' accepts 1 or 2 ; which applies? Write down the label attached to your selection.
1
(1: 2.19 µM, 2: 1.43 µM)

a: COc1cc(/C=C/C(C)=O)ccc1O [DEHYDROZINGERONE]
b: CC(=O)/C=C/c1cc(Cl)ccc1O
Smaller IC50 value? Options are a and b State the label of the item chosen.
a
(a: 11.5 µM, b: 60.3 µM)

1: CC(=O)/C=C/c1cc(C)c(O)c(C)c1
2: CC(=O)/C=C/c1cccc(C)c1O
3: CC(=O)/C=C/c1ccc(O)c(O)c1
4: CC(=O)/C=C/c1ccccc1O
Please list the entries, largest IC50 first. Answer format: the labels, ordered as requested.
4, 1, 2, 3
(4: 37.8 µM, 1: 6.32 µM, 2: 3.63 µM, 3: 2.34 µM)

a: COc1ccc(/C=C/C(C)=O)c(O)c1
b: CC(=O)/C=C/c1cc(C)ccc1O
c: CCOc1cccc(/C=C/C(C)=O)c1O
Please put the entries in order of rising IC50. Answer by writing out the labels in the requested order.
c, b, a

Origin of values: ChEMBL document CHEMBL1139592
